- target_or_test_system: EGFR wild type (EGFR WT) (Homo sapiens (Human))
- Sequence (P00533 25-1210): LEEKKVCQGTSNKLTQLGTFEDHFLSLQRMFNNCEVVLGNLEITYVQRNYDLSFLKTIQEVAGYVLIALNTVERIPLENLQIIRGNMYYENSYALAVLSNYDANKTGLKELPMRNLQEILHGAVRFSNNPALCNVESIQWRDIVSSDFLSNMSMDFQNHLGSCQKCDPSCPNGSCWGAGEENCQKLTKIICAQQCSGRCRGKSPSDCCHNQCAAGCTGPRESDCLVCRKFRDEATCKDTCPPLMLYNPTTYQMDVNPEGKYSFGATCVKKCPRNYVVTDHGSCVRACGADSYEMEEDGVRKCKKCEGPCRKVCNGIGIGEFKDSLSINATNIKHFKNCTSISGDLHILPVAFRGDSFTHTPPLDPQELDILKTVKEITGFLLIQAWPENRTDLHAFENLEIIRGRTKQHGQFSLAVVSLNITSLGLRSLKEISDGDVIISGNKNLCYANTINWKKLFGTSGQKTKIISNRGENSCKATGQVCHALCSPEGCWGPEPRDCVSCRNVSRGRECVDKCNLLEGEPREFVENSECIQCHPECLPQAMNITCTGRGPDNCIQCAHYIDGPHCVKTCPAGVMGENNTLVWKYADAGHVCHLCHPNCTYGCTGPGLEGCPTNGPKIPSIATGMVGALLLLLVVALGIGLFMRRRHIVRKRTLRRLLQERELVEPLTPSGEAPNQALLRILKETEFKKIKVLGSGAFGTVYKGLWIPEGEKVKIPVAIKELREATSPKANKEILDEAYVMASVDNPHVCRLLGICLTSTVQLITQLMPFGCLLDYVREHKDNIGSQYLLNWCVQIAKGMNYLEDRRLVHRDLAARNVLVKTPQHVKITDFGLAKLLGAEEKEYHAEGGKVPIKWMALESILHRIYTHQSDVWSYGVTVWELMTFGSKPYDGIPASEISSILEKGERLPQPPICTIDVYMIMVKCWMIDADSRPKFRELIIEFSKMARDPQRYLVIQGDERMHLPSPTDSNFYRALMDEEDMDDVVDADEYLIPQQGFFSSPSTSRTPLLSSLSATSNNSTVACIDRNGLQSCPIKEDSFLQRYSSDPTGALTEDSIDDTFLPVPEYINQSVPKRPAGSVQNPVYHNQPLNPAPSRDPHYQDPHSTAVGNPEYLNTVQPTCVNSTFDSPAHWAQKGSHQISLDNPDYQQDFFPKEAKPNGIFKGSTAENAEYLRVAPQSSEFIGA
- assay_comment: Cellular Phosphorylation Assay, Assay 5 (EGF-stimulated EGFR phosphorylation, NIH 3T3 cells)
- Type: cell-based
- condition: cellular EGFR WT phosphorylation, EGF-stimulated
experimental_endpoint: IC50 (µM)
Hi! Could you send only the number? It should be in µM, unit omitted.

INSERT INTO results (molecule, target_or_test_system, measurement_units, measured) VALUES
  ('C=CC(=O)N1C[C@H](c2ccc3ncnc(Nc4ccc(Oc5ccn6ncnc6c5)c(C)c4F)c3n2)CC1(C)C (racemic)', 'EGFR wild type (EGFR WT) (Homo sapiens (Human))', 'µM', 1.44),
  ('C=CC(=O)N1CCN(c2ccc3ncnc(Nc4ccc(Oc5cc(F)c6c(c5)ncn6C)c(C)c4)c3n2)CC1', 'EGFR wild type (EGFR WT) (Homo sapiens (Human))', 'µM', 0.302),
  ('C=CC(=O)N1CC2CC(C1)N2c1ccc2ncnc(Nc3ccc(Oc4cnc5c(c4)ncn5C)c(C)c3F)c2n1', 'EGFR wild type (EGFR WT) (Homo sapiens (Human))', 'µM', 1.14),
  ('C=CC(=O)N1CCN(c2ccc3ncnc(Nc4cc(Cl)c(Oc5ccn6ncnc6c5)cc4F)c3n2)CC1C(F)F (stereo not shown)', 'EGFR wild type (EGFR WT) (Homo sapiens (Human))', 'µM', 0.238),
  ('C=CC(=O)N1CCC12CN(c1ccc3ncnc(Nc4ccc(Oc5ccn6ncnc6c5)c(C)c4F)c3n1)C2', 'EGFR wild type (EGFR WT) (Homo sapiens (Human))', 'µM', 0.526);

Lab note: next molecule to report on.
Q: Can you share its IC50? I mean this molecule: C=CC(=O)N1C[C@H]2C[C@@H]1[C@H](c1ccc3ncnc(Nc4ccc(Oc5ccn6ncnc6c5)c(Cl)c4F)c3n1)C2
Ans: 0.737

###

Here the recorded efflux ratio at 2 h, 1 µM is given for each entry.
- target_or_test_system: BCRP (Homo sapiens (Human), UniProt Q9UNQ0)
- Sequence (Q9UNQ0 whole entry): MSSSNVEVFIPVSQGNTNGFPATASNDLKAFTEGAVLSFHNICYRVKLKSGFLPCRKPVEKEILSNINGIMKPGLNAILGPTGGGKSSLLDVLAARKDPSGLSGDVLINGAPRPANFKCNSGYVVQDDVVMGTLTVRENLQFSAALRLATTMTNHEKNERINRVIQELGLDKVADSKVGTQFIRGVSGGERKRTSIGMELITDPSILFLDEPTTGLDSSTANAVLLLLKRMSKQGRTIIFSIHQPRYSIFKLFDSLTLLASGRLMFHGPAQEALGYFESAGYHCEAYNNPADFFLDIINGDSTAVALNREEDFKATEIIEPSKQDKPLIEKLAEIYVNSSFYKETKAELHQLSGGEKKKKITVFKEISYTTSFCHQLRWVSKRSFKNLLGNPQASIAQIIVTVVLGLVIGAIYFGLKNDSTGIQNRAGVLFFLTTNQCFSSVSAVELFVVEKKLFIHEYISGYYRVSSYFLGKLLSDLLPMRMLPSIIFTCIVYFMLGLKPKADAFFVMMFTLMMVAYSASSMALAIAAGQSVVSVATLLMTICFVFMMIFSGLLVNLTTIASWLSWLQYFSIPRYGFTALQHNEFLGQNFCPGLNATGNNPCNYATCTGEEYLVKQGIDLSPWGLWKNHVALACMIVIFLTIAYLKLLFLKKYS
- assay_comment: BCRP MDCKII efflux assay (Assay 7)
- Type: in vitro ADME
- condition: dog; efflux ratio Papp(B-A)/Papp(A-B), BCRP MDCKII cells; read-out: Assay 7 Pe Ratio
Write the value as a bare number.

INSERT INTO measurements (compound, measured) VALUES
  ('C=CC(=O)N1CCN(c2ccc3ncnc(Nc4ccc(Oc5ccc6c(c5)ncn6C)c(C)c4)c3n2)CC1(C)C', 10.9),
  ('C=CC(=O)N1CCN(c2ccc3ncnc(Nc4cc(Cl)c(Oc5ccn6ncnc6c5)cc4F)c3n2)C[C@@H]1COC', 14.2),
  ('C=CC(=O)N1CCN(c2ccc3ncnc(Nc4ccc(Oc5ccc6c(c5)ncn6C)c(C)c4)c3n2)CC1', 31.6),
  ('C=CC(=O)N1CCC(c2ccc3ncnc(Nc4ccc(Oc5ccc6c(c5)ncn6C)c(C)c4F)c3n2)CC1(C)C (stereo not shown)', 1.6),
  ('C=CC(=O)N1[C@@H]2CC[C@H]1[C@H](c1ccc3ncnc(Nc4ccc(Oc5cnc6c(c5)ncn6C)c(C)c4)c3n1)C2', 2.2),
  ('C=CC(=O)N1CCN(c2ccc3ncnc(Nc4cc(C)c(Oc5ccn6ncnc6c5)cc4F)c3n2)CC12CC2', 3.6),
  ('C=CC(=O)N1C[C@@H](c2ccc3ncnc(Nc4ccc(Oc5ccn6ncnc6c5)c(C)c4F)c3n2)C[C@@H]1C (mixture of isomers)', 5),
  ('C=CC(=O)N1CCN(c2ccc3ncnc(Nc4ccc(Oc5ccn6ncnc6c5)c(Cl)c4)c3n2)CC1', 47);

Q: Can you share its efflux ratio at 2 h, 1 µM? I mean this compound: C=CC(=O)N1C[C@H]2CC[C@@H]1CN2c1ccc2ncnc(Nc3ccc(Oc4cnc5c(c4)ncn5C)c(C)c3F)c2n1
Ans: 6.8

Q: Can you share its efflux ratio at 2 h, 1 µM? I mean this compound: C=CC(=O)N1CCCN(c2ccc3ncnc(Nc4ccc(Oc5cnc6c(c5)ncn6C)c(C)c4)c3n2)CC1
Ans: 23.5

Q: Can you share its efflux ratio at 2 h, 1 µM? I mean this compound: C=CC(=O)N1[C@@H]2CC[C@H]1[C@H](c1ccc3ncnc(Nc4ccc(Oc5cnc6c(c5)ncn6C)c(C)c4F)c3n1)C2
Ans: 2.2

Q: Can you share its efflux ratio at 2 h, 1 µM? I mean this compound: CC#CC(=O)N1C[C@@H]2CC[C@H]1CN2c1ccc2ncnc(Nc3ccc(Oc4ccn5ncnc5c4)c(C)c3F)c2n1
Ans: 6.8

Q: Can you share its efflux ratio at 2 h, 1 µM? I mean this compound: C=CC(=O)N1CC[C@@H](c2ccc3ncnc(Nc4ccc(Oc5ccn6ncnc6c5)c(C)c4F)c3n2)CC12CC2 (single isomer, unassigned)
Ans: 3

###

- target_or_test_system: ErbB2 with Exon 20 YVMA insertion (HER2-YVMA) (Homo sapiens (Human), UniProt P04626, INS775YVMA)
- Sequence (P04626 other isoform, or with tags, fused parts or gaps ins YVMA behind 775): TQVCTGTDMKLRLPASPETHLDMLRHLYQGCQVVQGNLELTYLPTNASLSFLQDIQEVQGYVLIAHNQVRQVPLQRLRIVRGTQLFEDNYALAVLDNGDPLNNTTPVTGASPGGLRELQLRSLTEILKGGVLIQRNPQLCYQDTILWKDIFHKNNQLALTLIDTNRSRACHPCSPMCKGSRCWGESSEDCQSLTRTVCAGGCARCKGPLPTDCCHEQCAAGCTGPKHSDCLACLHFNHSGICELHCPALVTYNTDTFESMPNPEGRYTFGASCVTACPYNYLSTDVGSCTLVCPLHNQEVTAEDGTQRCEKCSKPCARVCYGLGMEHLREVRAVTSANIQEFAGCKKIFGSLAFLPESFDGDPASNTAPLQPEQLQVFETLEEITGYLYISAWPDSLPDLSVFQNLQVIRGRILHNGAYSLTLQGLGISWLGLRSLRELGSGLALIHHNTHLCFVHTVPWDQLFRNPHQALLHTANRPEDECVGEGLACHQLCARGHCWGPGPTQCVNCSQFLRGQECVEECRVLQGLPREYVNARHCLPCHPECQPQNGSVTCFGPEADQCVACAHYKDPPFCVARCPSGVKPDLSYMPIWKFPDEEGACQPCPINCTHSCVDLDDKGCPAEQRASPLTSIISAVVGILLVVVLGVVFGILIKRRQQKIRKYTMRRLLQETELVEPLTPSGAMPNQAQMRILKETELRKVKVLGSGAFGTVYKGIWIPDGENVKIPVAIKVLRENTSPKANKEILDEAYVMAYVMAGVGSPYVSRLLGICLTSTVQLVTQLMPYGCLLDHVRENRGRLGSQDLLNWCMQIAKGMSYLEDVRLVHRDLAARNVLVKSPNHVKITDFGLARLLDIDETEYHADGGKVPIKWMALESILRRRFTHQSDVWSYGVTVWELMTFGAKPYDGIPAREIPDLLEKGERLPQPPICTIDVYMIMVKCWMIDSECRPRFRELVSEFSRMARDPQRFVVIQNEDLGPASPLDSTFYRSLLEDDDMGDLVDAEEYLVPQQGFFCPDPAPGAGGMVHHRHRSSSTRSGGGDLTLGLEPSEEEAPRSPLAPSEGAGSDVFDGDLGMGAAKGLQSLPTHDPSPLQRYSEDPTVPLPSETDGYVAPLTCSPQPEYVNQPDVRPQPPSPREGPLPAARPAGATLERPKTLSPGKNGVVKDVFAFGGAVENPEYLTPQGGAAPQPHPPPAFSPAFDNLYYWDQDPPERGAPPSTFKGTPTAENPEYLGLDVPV
- assay_comment: Cellular Phosphorylation Assay, Assay 4 (constitutive ErbB2 phosphorylation, NIH 3T3 cells)
- Type: cell-based
- condition: cellular ErbB2 YVMA phosphorylation
Here the recorded pIC50 is given for each entry.
Keep in mind that pIC50 stands for -log10 of concentration in molar terms.

INSERT INTO results (compound, measured) VALUES
  ('C=CC(=O)N1CC[C@H](c2ccc3ncnc(Nc4ccc(Oc5cc(F)c6c(c5)ncn6C)c(C)c4)c3n2)CC1(C)C (racemic) [Example 279]', 7.21),
  ('C=CC(=O)N1CCN(c2ccc3ncnc(Nc4ccc(Oc5ccn6ncnc6c5)c(C)c4F)c3n2)C[C@@H]1C(C)C [Example 266]', 7.04),
  ('C=CC(=O)N1C[C@H]2C[C@@H]1[C@H](c1ccc3ncnc(Nc4ccc(Oc5ccn6ncnc6c5)c(C)c4)c3n1)C2 [Example 405]', 7.76),
  ('C=CC(=O)N1CCN(c2ccc3ncnc(Nc4cc(Cl)c(Oc5ccn6ncnc6c5)cc4F)c3n2)CC1C(F)F (stereo not shown) [Example 365]', 7.78),
  ('C=CC(=O)N1CCCCC(c2ccc3ncnc(Nc4cc(C)c(Oc5ccn6ncnc6c5)cc4F)c3n2)C1 (stereo not shown) [Example 376]', 7.44),
  ('C=CC(=O)N1CCN(c2ccc3ncnc(Nc4cc(C)c(Oc5cnc6c(c5)ncn6C)cc4F)c3n2)C[C@H]1C1CC1 [Example 356]', 7.57);

Q: Can you share its pIC50? I mean this compound: C=CC(=O)N1CCN(c2ccc3ncnc(Nc4ccc(Oc5ccn6ncnc6c5)c(C)c4F)c3n2)CC12CC2 [Example 338]
Ans: 8.31

###

- target_or_test_system: ErbB2 WT (Homo sapiens (Human), UniProt P04626)
- Sequence (P04626 23-1255): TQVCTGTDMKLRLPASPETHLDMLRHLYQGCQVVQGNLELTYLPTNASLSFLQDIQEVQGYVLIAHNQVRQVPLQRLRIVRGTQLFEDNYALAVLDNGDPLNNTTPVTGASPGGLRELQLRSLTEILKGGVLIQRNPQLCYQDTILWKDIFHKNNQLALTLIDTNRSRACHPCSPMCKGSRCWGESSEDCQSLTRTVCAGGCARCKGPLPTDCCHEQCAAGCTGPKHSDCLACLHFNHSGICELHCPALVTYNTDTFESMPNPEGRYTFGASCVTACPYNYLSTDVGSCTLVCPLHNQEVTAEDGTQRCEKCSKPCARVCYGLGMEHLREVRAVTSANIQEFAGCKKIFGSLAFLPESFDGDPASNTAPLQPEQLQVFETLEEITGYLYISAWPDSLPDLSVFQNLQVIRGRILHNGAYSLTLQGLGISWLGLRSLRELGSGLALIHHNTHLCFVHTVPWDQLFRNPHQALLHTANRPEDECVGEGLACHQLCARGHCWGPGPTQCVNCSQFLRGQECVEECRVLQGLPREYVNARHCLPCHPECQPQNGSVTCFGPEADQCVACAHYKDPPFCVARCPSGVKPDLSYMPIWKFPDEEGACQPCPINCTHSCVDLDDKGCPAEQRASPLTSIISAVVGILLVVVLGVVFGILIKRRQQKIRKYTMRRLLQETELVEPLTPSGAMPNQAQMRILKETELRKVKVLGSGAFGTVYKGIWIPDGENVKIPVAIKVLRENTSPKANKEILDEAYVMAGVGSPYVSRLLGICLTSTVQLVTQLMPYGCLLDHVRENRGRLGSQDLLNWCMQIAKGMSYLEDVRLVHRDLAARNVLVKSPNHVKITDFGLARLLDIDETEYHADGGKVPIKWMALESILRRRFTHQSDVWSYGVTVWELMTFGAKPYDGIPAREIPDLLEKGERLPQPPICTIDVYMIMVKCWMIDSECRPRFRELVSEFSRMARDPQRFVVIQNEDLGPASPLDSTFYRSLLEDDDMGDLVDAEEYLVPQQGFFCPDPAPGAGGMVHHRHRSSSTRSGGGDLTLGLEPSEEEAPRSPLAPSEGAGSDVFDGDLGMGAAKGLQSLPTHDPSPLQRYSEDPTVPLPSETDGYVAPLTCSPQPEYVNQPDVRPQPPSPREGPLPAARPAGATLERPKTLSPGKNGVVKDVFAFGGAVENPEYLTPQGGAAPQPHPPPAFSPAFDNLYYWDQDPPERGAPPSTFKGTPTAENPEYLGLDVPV
- assay_comment: ErbB Enzyme Assay (HTRF KinEASE-TK), Assay 2
- Assay type: biochemical
- condition: ErbB2 WT enzyme assay
pIC50: −log10 of the molar value.
Outcome label depends on pIC50 relative to 8: at/above gives Condition met, below gives Condition not met.

Here are 5 molecules together with their reported answers.
INSERT INTO assay_data (molecule, label) VALUES
  ('CC#CC(=O)N1C[C@@H]2C[C@H]1CN2c1ccc2ncnc(Nc3ccc(Oc4ccn5ncnc5c4)c(Cl)c3F)c2n1 [Example 316]', 'Condition not met'),
  ('C=CC(=O)N1CCN(c2ccc3ncnc(Nc4ccc(Oc5ccn6ncnc6c5)c(C)c4F)c3n2)C[C@@H]1C(C)C [Example 266]', 'Condition not met'),
  ('C=CC(=O)N1CCN(c2ccc3ncnc(Nc4cc(C)c(Oc5ccc6c(c5)ncn6C)cc4F)c3n2)C[C@H]1C(C)C [Example 254]', 'Condition not met'),
  ('C=CC(=O)N1CCN(c2ccc3ncnc(Nc4ccc(Oc5ccn6ncnc6c5)c(Cl)c4F)c3n2)C[C@@H]1C(F)F (racemic) [Example 299]', 'Condition met'),
  ('C=CC(=O)N1C[C@@H]2CC[C@H]1CN2c1ccc2ncnc(Nc3ccc(Oc4ccn5ncnc5c4)c(C)c3F)c2n1 [Example 331]', 'Condition met');

Q: Quick check: does C=CC(=O)N1CCCC(c2ccc3ncnc(Nc4ccc(Oc5cnc6c(c5)ncn6C)c(C)c4)c3n2)CC1 (centres unmarked) [Example 403] have pIC50 greater than or equal to 8?
Ans: Condition not met

Q: Quick check: does C=CC(=O)N1CCN(c2ccc3ncnc(Nc4ccc(Oc5cnc6c(c5)ncn6C)c(C)c4F)c3n2)C[C@@H]1C [Example 437] have pIC50 greater than or equal to 8?
Ans: Condition not met

###

- target_or_test_system: ErbB2 with Exon 20 YVMA insertion (HER2-YVMA) (Homo sapiens (Human), UniProt P04626, INS775YVMA)
- assay_comment: Cellular Phosphorylation Assay, Assay 4 (constitutive ErbB2 phosphorylation, NIH 3T3 cells)
- Assay type: cell-based
- condition: cellular ErbB2 YVMA phosphorylation
Here the recorded pIC50 is given for each entry.
Keep in mind that pIC50 stands for -log10 of concentration in molar terms.

Check out these entries, answers already filled in.
INSERT INTO results (molecule, measured) VALUES
  ('C=CC(=O)N1C[C@@H]2C[C@H]1CN(c1ccc3ncnc(Nc4ccc(Oc5ccn6ncnc6c5)c(C)c4F)c3n1)C2', 7.56),
  ('C=CC(=O)N1C[C@H]2C[C@@H]1CN(c1ccc3ncnc(Nc4cc(C)c(Oc5cnc6c(c5)ncn6C)cc4F)c3n1)C2', 7.31),
  ('C=CC(=O)N1CCN(c2ccc3ncnc(Nc4ccc(Oc5cnc6c(c5)ncn6C)c(C)c4F)c3n2)C[C@@H]1C', 7.73),
  ('C=CC(=O)N1CCN(c2ccc3ncnc(Nc4ccc(Oc5cc(F)c6c(c5)ncn6C)c(C)c4)c3n2)CC1(C)C', 7.90),
  ('C=CC(=O)N1CCC(c2ccc3ncnc(Nc4ccc(Oc5ccn6ncnc6c5)c(C)c4F)c3n2)CC12CC2 (stereo not shown)', 7.70),
  ('C=CC(=O)N1CC[C@H]2C[C@H](c3ccc4ncnc(Nc5ccc(Oc6ccn7ncnc7c6)c(C)c5F)c4n3)C[C@H]21', 7.68);

Q: Can you share its pIC50? I mean this molecule: C=CC(=O)N1CCN(c2ccc3ncnc(Nc4ccc(Oc5ccn6ncnc6c5)c(Cl)c4F)c3n2)CC12CC2
Ans: 8.49
